The entries below come with measured A450 at 13 nM Ab in cell ELISA values attached.
TESTED SYSTEM: T1, rat IL-21R expressed on cells (rat)
T1 construct: whole, on cells; Transiently transfected CHO-PA-Dukx cells
METHOD NOTES: cell ELISA on transfected CHO cells, 13 nM IgG
Report as a plain number; the unit A450 is understood.

For orientation, consider the following solved cases.
{"columns": ["BINDER", "MEASURED PROPERTY", "READOUT UNIT", "VALUE"],
 "data": [
  ["AbG (antibody, human IgG1, V domains shown, Full-length human IgG1 / human lambda, transient, conditioned medium; Framework limits derived; also called VHP/VL18) VH: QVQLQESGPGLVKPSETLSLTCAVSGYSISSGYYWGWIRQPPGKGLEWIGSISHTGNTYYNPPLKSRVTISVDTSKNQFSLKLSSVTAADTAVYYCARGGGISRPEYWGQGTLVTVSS VL: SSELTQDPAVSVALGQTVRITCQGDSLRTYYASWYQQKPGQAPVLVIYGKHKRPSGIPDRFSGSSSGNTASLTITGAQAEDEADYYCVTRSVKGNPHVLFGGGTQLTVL", "A450 at 13 nM Ab in cell ELISA", "A450", 1.11],
  ["AbP (antibody, human IgG1, V domains shown, Human IgG1 triple-mutant (L234A, L235A, G237A); Framework limits derived; also called VHP/VL20; VHPTM/VL20) VH: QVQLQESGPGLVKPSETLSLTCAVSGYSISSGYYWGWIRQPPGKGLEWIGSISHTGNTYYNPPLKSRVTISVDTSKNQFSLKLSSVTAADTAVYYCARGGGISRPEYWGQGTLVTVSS VL: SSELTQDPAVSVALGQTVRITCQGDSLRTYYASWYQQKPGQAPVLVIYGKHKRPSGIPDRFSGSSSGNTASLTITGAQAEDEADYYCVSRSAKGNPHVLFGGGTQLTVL", "A450 at 13 nM Ab in cell ELISA", "A450", 1.03]
]}

Read the next record carefully.
Record summary for AbR (antibody, human IgG1, V domains shown, Purified form: human IgG1 double-mutant (L234A, G237A); Framework limits derived; also called VH3/VL18; VH3DM/VL18) VH: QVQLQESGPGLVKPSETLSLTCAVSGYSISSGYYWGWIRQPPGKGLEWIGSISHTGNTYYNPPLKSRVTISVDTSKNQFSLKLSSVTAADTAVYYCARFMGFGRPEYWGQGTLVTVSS VL: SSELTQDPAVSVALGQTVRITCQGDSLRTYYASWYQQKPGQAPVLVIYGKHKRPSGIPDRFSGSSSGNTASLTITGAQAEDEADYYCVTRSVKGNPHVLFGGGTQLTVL : reported A450 at 13 nM Ab in cell ELISA = 1.11
